Please respond with reported IC50 for every item in the list.
Experimental System: PRMT5/MEP50 (Homo sapiens (Human), UniProt O14744)
Sequence (O14744 other isoform, or with tags, fused parts or gaps): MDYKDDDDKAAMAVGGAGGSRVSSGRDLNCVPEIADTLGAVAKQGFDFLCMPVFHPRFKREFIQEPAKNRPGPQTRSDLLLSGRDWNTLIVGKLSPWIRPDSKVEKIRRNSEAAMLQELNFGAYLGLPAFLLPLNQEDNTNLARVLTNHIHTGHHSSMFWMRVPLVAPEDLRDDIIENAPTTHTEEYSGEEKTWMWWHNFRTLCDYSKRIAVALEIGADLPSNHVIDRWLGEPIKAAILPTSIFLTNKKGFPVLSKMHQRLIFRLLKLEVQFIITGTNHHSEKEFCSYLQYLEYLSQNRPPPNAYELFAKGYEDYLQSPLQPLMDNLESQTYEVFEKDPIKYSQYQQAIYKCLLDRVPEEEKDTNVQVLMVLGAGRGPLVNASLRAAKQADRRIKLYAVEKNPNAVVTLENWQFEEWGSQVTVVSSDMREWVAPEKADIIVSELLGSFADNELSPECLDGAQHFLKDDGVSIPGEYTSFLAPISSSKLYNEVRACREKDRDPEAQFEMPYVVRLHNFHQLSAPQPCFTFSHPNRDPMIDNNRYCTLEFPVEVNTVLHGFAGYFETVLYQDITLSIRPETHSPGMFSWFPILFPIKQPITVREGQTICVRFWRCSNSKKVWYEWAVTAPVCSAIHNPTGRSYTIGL
Sequence (Q9BQA1 other isoform, or with tags, fused parts or gaps partner): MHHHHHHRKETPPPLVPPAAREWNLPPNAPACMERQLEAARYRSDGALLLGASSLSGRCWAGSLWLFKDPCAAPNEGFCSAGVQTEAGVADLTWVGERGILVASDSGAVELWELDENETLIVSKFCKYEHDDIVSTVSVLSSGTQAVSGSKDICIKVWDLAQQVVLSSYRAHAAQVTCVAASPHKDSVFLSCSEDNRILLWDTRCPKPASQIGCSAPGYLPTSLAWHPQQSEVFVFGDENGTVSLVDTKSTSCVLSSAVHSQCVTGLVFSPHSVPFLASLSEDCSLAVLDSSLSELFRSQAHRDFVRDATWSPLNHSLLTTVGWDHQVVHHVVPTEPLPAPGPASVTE
Test Description: PRMT5 Biochemical Assay (PRMT5/MEP50 enzyme assay on peptide substrate, 3H-SAM Flashplate)
Reported Conditions: PRMT5 biochemical assay

CC(=O)N1CC(Nc2cc(C(=O)NCC(N)CN3CCc4ccccc4C3)ncn2)C1 (centres unmarked) [Compound 699] :: 101 to 1000 nM
Nc1cc(C(=O)NC[C@H](O)CN2CCc3ccccc3C2)ncn1 [Compound 429] :: 101 to 1000 nM
CN(C)[C@H]1CC[C@@H](Nc2cc(C(=O)NC[C@H](O)CN3CCc4ccccc4C3)ncn2)CC1 [Compound 589] :: < 100 nM

Hey, can you go through the list below and give me IC50 for every item?
1. CC(=O)N1CCC(Nc2cc(C(=O)NC[C@H](O)CN3CCc4ccccc4C3C)ncn2)CC1 (some centres unmarked) [Compound 584]
2. N[C@H]1CC[C@H](Nc2cc(C(=O)NC[C@H](O)CN3CCc4ccccc4C3)ncn2)CC1 [Compound 595]
3. CO[C@H]1C[C@H](Nc2cc(C(=O)NC[C@H](O)CN3CCc4ccccc4C3)ncn2)C1 [Compound 559]
4. O=C(NC[C@H](O)CN1CCc2ccccc2C1)C1=CC2=NC(CO)CN2C=N1 (some centres unmarked) [Compound 473]

Found:
["< 100 nM", "< 100 nM", "< 100 nM", "101 to 1000 nM"]

Lookup: So what's the measured IC50 for this one? COCCN(CCOC)[C@H]1C[C@@H](Nc2cc(C(=O)NC[C@H](O)CN3CCc4ccccc4C3)ncn2)C1 [Compound 562]
Found: < 100 nM

* * *

Experimental System: PRMT5/MEP50 (Homo sapiens (Human), UniProt O14744)
Test Description: PRMT5 Biochemical Assay (PRMT5/MEP50 enzyme assay on peptide substrate, 3H-SAM Flashplate)
Reported Conditions: PRMT5 biochemical assay
pIC50: −log10 of the molar value.
Assay Endpoint: pIC50

Solved cases (3 shown):
CC(=O)[C@H]1CC[C@H](Nc2cc(C(=O)NC[C@H](O)CN3CCc4ccccc4C3)ncn2)CC1 [Compound 600] :: > 7.00
CC(=O)N1CC(Nc2cc(C(=O)NC[C@H](O)CN3CCc4ccccc4C3)nc(C(F)(F)F)n2)C1 [Compound 474] :: > 7.00
CCC(=O)N1CCN(c2nc(NC3CNC3)cc(C(=O)NC[C@H](O)CN3CCc4ccccc4C3)n2)CC1 [Compound 484] :: > 7.00

Hey, can you go through the list below and give me pIC50 for every item?
1. NC(=O)CN1CC(Nc2cc(C(=O)NC[C@H](O)CN3CCc4ccccc4C3)ncn2)C1 [Compound 621]
2. COC(CNC(=O)c1cc(NC2CCNCC2)ncn1)CN1CCc2ccccc2C1 (stereo not shown) [Compound 538]
3. O=C(NC[C@H](O)CN1CCc2ccccc2C1)c1cc(Nc2cc[nH]n2)ncn1 [Compound 431]
4. CC(C)(C)C(=O)N1CC(Nc2cc(C(=O)NC[C@H](O)CN3CCc4ccccc4C3)ccn2)C1 [Compound 505]
5. N[C@H]1CC[C@@H](Nc2cc(C(=O)NC[C@H](O)CN3CCc4ccccc4C3)ncn2)CC1 [Compound 591]

Found:
> 7.00
5.00 to 6.00
> 7.00
> 7.00
> 7.00

// data source = patent US10307413B2
